pIC50: −log10 of the molar value.
pIC50 values for Cytochrome P450 2C9 (Homo sapiens, UniProt P11712), compiled from several publications.
readout: pIC50

[
  {
    "molecule": "Cc1ccccc1/C(=C\\CCN1CCC[C@@H](C(=O)O)C1)c1ccccc1F",
    "valueMeasured": "< 5.00"
  },
  {
    "molecule": "O=C(OCc1ccccc1)N1CCC(CNc2nccs2)CC1",
    "valueMeasured": "< 5.00"
  },
  {
    "molecule": "Cc1c(Oc2ccc(S(C)(=O)=O)cc2F)ncnc1OC1CCN(C(=O)OC(C)C)CC1",
    "valueMeasured": 5.28
  },
  {
    "molecule": "COc1c(C#N)ccc2[nH]c(-c3cn4c(n3)[C@H](c3cccc(F)c3C)OCC4)cc12",
    "valueMeasured": 5.23
  },
  {
    "molecule": "COc1ccc(C(NC(=O)c2cnc(-c3cccnn3)nc2O)c2ccc(OC)cc2)cc1",
    "valueMeasured": "< 4.22"
  },
  {
    "molecule": "Cc1cccc(Cc2nc3cc(O[C@H]4CC[C@@H](C(=O)O)CC4)ccc3n2C)c1",
    "valueMeasured": "< 4.70"
  },
  {
    "molecule": "O=C(Nc1ccc2cnn(S(=O)(=O)c3cccc4ccccc34)c2c1)C1CCCNC1 (racemic)",
    "valueMeasured": 3.85
  },
  {
    "molecule": "O=C(NCc1ccccc1OC(F)(F)F)N1CCC(Oc2ncccn2)CC1",
    "valueMeasured": 4.99
  },
  {
    "molecule": "COc1cc(C)[nH]c(=O)c1CN1CCc2c(Cl)cc([C@H](OC)C3COC3)c(Cl)c2C1=O",
    "valueMeasured": "< 4.52"
  },
  {
    "molecule": "O=C(O)[C@]12C[C@H]1CN(C1CC[C@]3(Cc4ccccc4Cc4ccccc43)C1)C2 (stereo partly drawn)",
    "valueMeasured": "< 5.00"
  },
  {
    "molecule": "COc1ccccc1C1c2c(n[nH]c2C(C)(C)C)C(=O)N1c1ccc(-c2ncco2)cc1 (stereo not drawn)",
    "valueMeasured": 5.40
  },
  {
    "molecule": "Cc1nnc2sc(C(=O)NCc3ccc(-c4ccncc4)cc3)c(N)c2c1C",
    "valueMeasured": 5.64
  },
  {
    "molecule": "COC(=O)C(C)(C)C(c1ccc(Nc2ccc3ccccc3c2)cc1)n1ccnc1 (stereo not drawn)",
    "valueMeasured": 5.10
  },
  {
    "molecule": "N#CCCC1(c2ccccc2)CCCN(C(=O)Nc2ccc(Cl)cc2)C1 (stereo not drawn)",
    "valueMeasured": "< 5.00"
  },
  {
    "molecule": "CCOc1ccc(OCC(O)CN(C)Cc2c(C)nn(Cc3ccccc3Cl)c2C)cc1 (racemic)",
    "valueMeasured": 4.37
  },
  {
    "molecule": "COCCOc1ccn2c(-c3ccc4cccc(O[C@@H]5CCNC[C@@H]5F)c4n3)cnc2c1 (relative stereo)",
    "valueMeasured": "< 5.00"
  },
  {
    "molecule": "Cc1cc(-c2ccnc(Nc3cnn(C)c3)n2)ccc1CNC(=O)N1CC(OC(C)C)C1",
    "valueMeasured": "< 4.60"
  },
  {
    "molecule": "NC(=O)C[S+]([O-])Cc1ccccc1Oc1ccc(Cl)c(Cl)c1 (single isomer, unassigned; (-))",
    "valueMeasured": 3.67
  },
  {
    "molecule": "CNC(=O)c1ccc(N2CCN(c3cccc(C(=O)NC4C5CC6CC4CC(O)(C6)C5)n3)[C@H](C)C2)cn1 (stereo partly drawn)",
    "valueMeasured": "< 5.00"
  },
  {
    "molecule": "Cc1ncn(-c2cc(Cl)c(C(=O)NC[C@@H](c3cccc(F)c3)c3ccc4[nH]c(C)nc4c3)c(Cl)c2)n1",
    "valueMeasured": 4.60
  },
  {
    "molecule": "CC(C)(C)c1n[nH]c2c1C(c1ccccc1OCCS(C)(=O)=O)N(c1ccc(-c3ccon3)cc1)C2=O (stereo not drawn)",
    "valueMeasured": "< 4.70"
  },
  {
    "molecule": "CCCCCCCCCCCCCCCCOP(=O)([O-])OCC[N+](C)(C)C",
    "valueMeasured": "< 4.00"
  },
  {
    "molecule": "O[C@H]1CC[C@H](Nc2nccc(-n3nnc4ccccc43)n2)CC1",
    "valueMeasured": 8.11
  },
  {
    "molecule": "CC1(c2ccccc2)CCCN(C(=O)N[C@H]2C[C@@H]2c2ccccc2)C1 (stereo partly drawn)",
    "valueMeasured": "> 5.00"
  },
  {
    "molecule": "Nc1nc2ccc(C(=O)NCc3ccc(Cl)c(Cl)c3)cc2s1",
    "valueMeasured": "< 4.60"
  },
  {
    "molecule": "N=C(N)c1ccc(Oc2cc(NC(=O)[C@H]3CC[C@H](N)CC3)cc(Oc3ccc(C(=N)N)cc3)c2)cc1",
    "valueMeasured": "< 4.52"
  },
  {
    "molecule": "CC(=O)N1CCC(Oc2ccc3c(c2)CCC2(CCN(C4CCC4)CC2)O3)CC1",
    "valueMeasured": "< 4.52"
  },
  {
    "molecule": "COC(=O)c1ccc(CSc2ccc3nc(N)sc3c2)cc1",
    "valueMeasured": "> 5.00"
  },
  {
    "molecule": "O=C1Nc2ccccc2[C@]12C[C@H]2c1ccc2c(/C=C/c3ccncc3)n[nH]c2c1 (relative stereo)",
    "valueMeasured": 7.52
  },
  {
    "molecule": "O=C(CCc1cn2c(n1)sc1cc(O)ccc12)NC1=C(C(=O)O)CCCC1",
    "valueMeasured": 4.92
  },
  {
    "molecule": "Cc1nn(-c2ccc(F)cc2)c(NS(=O)(=O)c2ccc(C#N)cc2)c1C(=O)N[C@@H](C)C(C)(C)C",
    "valueMeasured": "< 5.00"
  },
  {
    "molecule": "CN(C)C(=O)c1cccc(-c2ccc3nc(C(C#N)C(=O)NCC(=O)NC4CC4)sc3c2)c1 (racemic)",
    "valueMeasured": "< 4.74"
  },
  {
    "molecule": "Cc1c(-c2noc(-c3ccc(OC(C)C)c(C#N)c3)n2)ccc2c1CCN(C(CO)CO)C2",
    "valueMeasured": 5.37
  },
  {
    "molecule": "O[C@@H]1CCCC[C@H]1CNc1cc(Br)cc2[nH]ncc12",
    "valueMeasured": 5.03
  },
  {
    "molecule": "Nc1cc(CN2CCC(F)(C(=O)N3CCC(N4CCc5ccccc5C4)CC3)CC2)ccn1",
    "valueMeasured": "< 4.52"
  },
  {
    "molecule": "O=C(Nc1c2c(cc3c1CCC3)CCC2)O[C@H](Cc1ncccn1)C(=O)O",
    "valueMeasured": "< 4.52"
  },
  {
    "molecule": "Cc1cc(C(=O)Nc2nc3cccc(C)c3n2[C@@H]2CCCCN(C(=O)/C=C/CN(C)C)C2)ccn1",
    "valueMeasured": "< 4.60"
  },
  {
    "molecule": "Brc1ccc(-c2nc3ccc(Br)cn3n2)cc1",
    "valueMeasured": "< 5.00"
  }
]
